Test system: HeLa-APL
Method: Inhibition of cells growth by colorimetric assay (SRB)
Assay setup: Homo sapiens, 48 h, read-out: HELA-APL TGI
Description: This form of the assay employs 96 well cell culture microplates of 9 mm diameter (Faircloth, 1988; Mosmann, 1983). Most of the cell lines are obtained from American Type Culture Collection (ATCC) derived from different human cancer types. […] The values for mean +/− SD of data from triplicate wells are calculated. Some parameters for cellular responses can be calculated: GI=growth inhibition, TGI=total growth inhibition (cytostatic effect) and LC=cell killing (cytotoxic effect).
Parameter: IC (TGI). Scope: all listed entries.
Write your answer as a measured quantity: the number, then the unit.

Compound: C=CCN1[C@@H]2c3c(cc(C)c(OC)c3O)C[C@H]1[C@H](C#N)N1C2[C@@H]2SC[C@]3(NCCc4cc(OC(=O)OC(C)(C)C)c(OC)cc43)C(=O)OC[C@H]1c1c3c(c(C)c(OC(C)=O)c12)OCO3 (some centres unmarked) [compound 44]
Reading: 59.6 nM

Note: attention shifts to another entry.
// lookup IC (TGI) for C=CCN1[C@@H]2c3c(cc(C)c(OC)c3O)C[C@H]1[C@H](C#N)N1C2[C@@H]2SC[C@]3(NCCc4c3[nH]c3ccc(O)cc43)C(=O)OC[C@H]1c1c3c(c(C)c(OC(C)=O)c12)OCO3 (some centres unmarked) [compound 57] 50.5 nM

* * *

Parameter: GI50. Scope: all listed entries.
System: IGROV-1
Method: Inhibition of cells growth by colorimetric assay (SRB)
Assay setup: Homo sapiens, IGROV-1, 48 h, read-out: IGROV GI50

Here are 3 molecules together with their reported answers.
Molecule: COc1cc2c(cc1O)CCN[C@]21CS[C@@H]2c3c(O)c(C)c4c(c3[C@H](COC1=O)N1C2[C@@H]2N[C@@H](Cc3cc(C)c(OC)c(O)c32)[C@@H]1O)OCO4 (some centres unmarked)
Quantity measured: GI50
Reading: 3.94 nM

Molecule: COC1=C(C)C(=O)C2=C(C1=O)[C@@H]1C3[C@@H]4SC[C@]5(NCCc6c5[nH]c5ccccc65)C(=O)OC[C@@H](c5c6c(c(C)c(OC(C)=O)c54)OCO6)N3[C@@H](O)[C@H](C2)N1C (some centres unmarked)
Quantity measured: GI50
Reading: 67.1 nM

Molecule: COc1c(C)cc2c(c1O)[C@H]1N[C@@H](C2)[C@H](O)N2C1[C@@H]1SC[C@]3(NCCc4c3[nH]c3ccc(C)cc43)C(=O)OC[C@H]2c2c3c(c(C)c(OC(C)=O)c21)OCO3 (some centres unmarked)
Quantity measured: GI50
Reading: 2.99 nM

// lookup GI50 for COc1cc2c(cc1O)CCN[C@]21CS[C@@H]2c3c(OC(=O)/C=C/c4ccccc4)c(C)c4c(c3[C@H](COC1=O)N1C2[C@@H]2N[C@@H](Cc3cc(C)c(OC)c(O)c32)[C@@H]1O)OCO4 (some centres unmarked) 2.74 nM

Now the molecule COc1c(C)cc2c(c1OC(=O)/C=C/c1ccccc1)[C@H]1N[C@@H](C2)[C@H](O)N2C1[C@@H]1SCC(NC(=O)C(F)(F)F)C(=O)OC[C@H]2c2c3c(c(C)c(OC(C)=O)c21)OCO3 (some centres unmarked) 91.3 nM

* * *

Tested on: HeLa-APL
Method: Inhibition of cells growth by colorimetric assay (SRB)
Assay setup: read-out: HELA-APL LC50; HELA-APL; SRB, 48 hours exposure
Quantity measured: CC50 (nM)
All answers are understood in nM, so give the number only.

Quick check: CC50 on HeLa-APL, item COC1=C(C)C(=O)C2=C(C1=O)C1C3C4SCC(NC(C)=O)C(=O)OCC(c5c6c(c(C)c(OC(C)=O)c54)OCO6)N3C(O)C(C2)N1C (stereo not shown) ? 10.9
